Test system: MS2 coat protein
Experiment summary: apparent KD of MS2 coat protein; designed switch direction (-1 OFF switch, 1 ON switch): -1; higher = weaker reporter binding
Conditions used: input ligand: FMN 200 uM
Measurement type: apparent KD of MS2 coat protein (nM)
Only the number, expressed in nM, is required.

UUCUUAUAUGAAGGAUAUACUUAACAUGAGGAUCACCCAUGUGGUGUUGUGAGUGAGUGAGUUUAGUAGAAGGUCAAUUCUUUU [JMF's solution 95] (Eterna round: R96, puzzle: Exclusion NG 2): 818

Turning to the following sequence.
IN: Which apparent KD of MS2 coat protein value is on record for CUGCUGGAGCGGCGCUUUGGUCGUACAUGAGGAUCACCCAUGUAGGAUAUGGUAAAAUUUGCUUGCUAGAAGGAUAGAGUGGUC [salish99_ExNG3_r04_615] (Eterna round: R96, puzzle: Exclusion NG 3) ?
OUT: 140
